- molecule: "O=C(NNC(=S)Nc1ccccc1F)c1ccccn1 [Compound 1]"
  melting point: "182 to 184 °C"
- molecule: "O=C(NNC(=S)NCCN1CCOCC1)c1ccccn1 [Compound 3]"
  melting point: "196 to 198 °C"
- molecule: "O=C(NNC(=S)Nc1ccc(Cl)cc1Cl)c1cccnc1 [Compound 7]"
  melting point: "196 to 197 °C"
- molecule: "O=C(NNC(=S)Nc1ccc(Cl)cc1Cl)c1ccccn1 [Compound 4]"
  melting point: "158 to 160 °C"
- molecule: "CSc1ccc(NC(=S)NNC(=O)c2ccncc2)cc1 [Compound 8]"
  melting point: "197 to 198 °C"
- molecule: "O=C(NNC(=S)Nc1ccccc1F)c1ccncc1 [Compound 9]"
  melting point: "202 to 204 °C"
- molecule: "CSc1ccc(NC(=S)NNC(=O)c2ccccn2)cc1 [Compound 5]"
  melting point: "184 to 186 °C"
- molecule: "CSc1ccc(NC(=S)NNC(=O)c2cccnc2)cc1 [Compound 6]"
  melting point: "176 to 177 °C"
- molecule: "O=C(NNC(=S)Nc1ccccc1Cl)c1ccccn1 [Compound 2]"
  melting point: "172 to 174 °C"
